Values from patent US20220375563A1

Parameter: Therapeutic index. Scope: all listed entries.
- ASSAY PROCEDURE: Therapeutic index (ratio between upper/lower bounds of therapeutic window)
- Type: in vivo
- CONDITION SET: Table 7 antiepileptics
// no unit string in output, number only

Consider the following illustrative entries.
- COMPOUND: "NS(=O)(=O)Cc1noc2ccccc12 [Zonisamide]"
  Therapeutic index: 4
- COMPOUND: "NC(=O)OCC(COC(N)=O)c1ccccc1 [Felbamate]"
  Therapeutic index: 2
- COMPOUND: "Nc1nnc(-c2cccc(Cl)c2Cl)c(N)n1"
  Therapeutic index: 4.7

Exercise: Answer with the recorded Therapeutic index for the compound listed here: `Cc1ccsc1C(=CCCN1CCC[C@@H](C(=O)O)C1)c1sccc1C`
Key: 10

Exercise: Answer with the recorded Therapeutic index for the compound listed here: `CCCC(CCC)C(=O)O`
Key: 2

Exercise: Answer with the recorded Therapeutic index for the compound listed here: CC1(C)O[C@@H]2[C@@H](CO[C@@]3(COS(N)(=O)=O)OC(C)(C)O[C@@H]23)O1 [Topiramate]
Key: 4

Exercise: Answer with the recorded Therapeutic index for the compound listed here: NC(=O)N1c2ccccc2C=Cc2ccccc21 [Carbamazepine]
Key: 3

Exercise: Answer with the recorded Therapeutic index for the compound listed here: `O=C1NC(=O)C(c2ccccc2)(c2ccccc2)N1`
Key: 2
